- test.target: OATP1B3 (Homo sapiens, UniProt Q9NPD5)
- Construct: gene SLCO1B3; stably expressed in HEK293T cells (Shanghai Genechem), sodium butyrate induced
- Sequence (Q9NPD5 1-702): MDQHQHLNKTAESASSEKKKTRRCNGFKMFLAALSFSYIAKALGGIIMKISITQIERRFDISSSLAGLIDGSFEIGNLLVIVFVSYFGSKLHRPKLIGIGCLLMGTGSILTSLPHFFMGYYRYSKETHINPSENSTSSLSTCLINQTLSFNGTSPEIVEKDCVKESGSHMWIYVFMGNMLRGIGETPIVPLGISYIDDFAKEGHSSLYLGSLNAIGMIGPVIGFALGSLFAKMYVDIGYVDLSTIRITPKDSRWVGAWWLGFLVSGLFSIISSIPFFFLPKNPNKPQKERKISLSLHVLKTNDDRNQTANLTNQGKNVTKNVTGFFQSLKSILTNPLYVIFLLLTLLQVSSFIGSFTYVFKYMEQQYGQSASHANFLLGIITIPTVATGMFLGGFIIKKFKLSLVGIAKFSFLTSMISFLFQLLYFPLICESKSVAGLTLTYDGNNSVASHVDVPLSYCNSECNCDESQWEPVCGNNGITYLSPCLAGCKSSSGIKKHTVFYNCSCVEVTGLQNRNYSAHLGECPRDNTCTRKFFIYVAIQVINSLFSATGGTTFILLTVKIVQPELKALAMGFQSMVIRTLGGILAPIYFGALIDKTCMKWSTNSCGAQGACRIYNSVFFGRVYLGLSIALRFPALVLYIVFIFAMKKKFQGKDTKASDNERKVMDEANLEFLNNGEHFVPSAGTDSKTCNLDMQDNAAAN
- measurement.description: concentration-dependent uptake in HEK293T cells, LC-MS
- Assay type: cell-based
metric: Km

Q. Quick one: Km for C[C@@H]1CC[C@@]2(OC1)O[C@H]1C[C@H]3[C@@H]4CC=C5C[C@@H](O)C[C@@H](O[C@@H]6O[C@H](C)[C@H](O)[C@H](O[C@@H]7OC[C@@H](O)[C@H](O)[C@H]7O)[C@H]6O[C@@H]6O[C@@H](C)[C@H](O)[C@@H](O)[C@H]6O)[C@]5(C)[C@H]4CC[C@]3(C)[C@H]1[C@@H]2C [Ophiopogonin D] ?
A. 11.3 µM
